Listed here are binders together with their documented pKd.
Molecular target: T1, p5 peptide of EGFL7 (human)
T1 construct: also called Peptide P5
T1 peptide: RACSTYRTIYRTA
Assay: SPR (Biacore), IgG over immobilized P5 peptide at 37 C;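 note: IgG variants injected at 0.5–1000 nM (2-fold series), 3 min association and 3.5 min dissociation, reference flow cell subtracted, kinetics fitted with a 1:1 Langmuir model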
To interpret pKd, take it as minus log10 of a concentration measured in moles per litre.

1. 18F7.v6E IgG (antibody, V domains shown, IgG; Variant of 18F7.v6) VH: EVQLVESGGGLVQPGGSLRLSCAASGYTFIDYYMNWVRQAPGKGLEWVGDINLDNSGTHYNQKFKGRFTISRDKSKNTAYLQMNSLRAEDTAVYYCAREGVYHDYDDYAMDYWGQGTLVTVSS VL: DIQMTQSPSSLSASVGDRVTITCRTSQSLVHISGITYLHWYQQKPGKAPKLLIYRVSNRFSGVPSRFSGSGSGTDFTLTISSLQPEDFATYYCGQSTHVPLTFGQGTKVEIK    8.29

Kindly consider the entry below.
Using the record for 18F7.v4 IgG (antibody, name in Kabat numbering, V domains shown, IgG; Kabat numbering; also called 18F7-KV) VH: EVQLVESGGGLVQPGGSLRLSCAASGYTFIDYYMNWVRQAPGKGLEWVGDINLDNGGTHYNQKFKGRFTISRDKSKNTVYLQMNSLRAEDTAVYYCAREGVYHDYDDYAMDYWGQGTLVTVSS VL: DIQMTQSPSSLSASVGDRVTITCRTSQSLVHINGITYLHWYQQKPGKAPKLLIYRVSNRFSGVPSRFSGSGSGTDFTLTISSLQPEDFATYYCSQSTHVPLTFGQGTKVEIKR , report its pKd.
8.14
